All values here come from ChEMBL document CHEMBL1806368.

Assay: Aqueous solubility of the compound at pH 7.4
Type: physicochemical
Details: buffer, read-out: solubility
solubility listing for selected compounds.

Item Smiles	solubility
Cc1c2c(n3c1CCN(C(=O)[C@@H]1CCCN1)C[C@@H](C)[C@H](C)Nc1cc-3ccc1C(N)=O)CC(C)(C)CC2=O	> 100 µg/mL
Cc1c2c(n3c1CCN(C(=O)C(C)(C)N)C[C@@H](C)[C@H](C)Nc1cc-3ccc1C(N)=O)CC(C)(C)CC2=O	> 100 µg/mL
CC[C@H](N)C(=O)N1CCc2c(C)c3c(n2-c2ccc(C(N)=O)c(c2)N[C@@H](C)[C@H](C)C1)CC(C)(C)CC3=O	> 100 µg/mL

Give the value of solubility reported for the following: Cc1c2c(n3c1CCN(C(=O)[C@@H](N)C(C)C)C[C@@H](C)[C@H](C)Nc1cc-3ccc1C(N)=O)CC(C)(C)CC2=O
> 100 µg/mL
